test system: S. epidermidis 563; experiment: agar diffusion test (Test System II, multi-resistant germs); type: cell-based, Staphylococcus epidermidis; conditions: Quantity n 0.19
ENDPOINT: Diameter of zone of inhibition (mm)
Your answer is read as mm, so omit the unit and give the number.

These recorded examples may help you get a feel for the data.
>>> value_reported("CCOC(=O)C1=C(NC(C(=O)NC2C(=O)N3C(C(=O)O)=C(Cl)CSC23)c2ccccc2)C(=O)C=CC1=O (stereo not shown)")
30
>>> value_reported("N[C@@H](C(=O)N[C@@H]1C(=O)N2C(C(=O)O)=C(Cl)CS[C@H]12)c1ccccc1 [2c, Cefaclor, reference compound]")
36
>>> value_reported("CC1=C(C(=O)O)N2C(=O)[C@@H](NC(=O)[C@H](N)c3ccc(O)cc3)[C@H]2SC1 [2a, Cefadroxil, reference compound]")
32

The recorded Diameter of zone of inhibition for entry COC(=O)C1=C(NC(C(=O)NC2C(=O)N3C(C(=O)O)=C(C)CSC23)c2ccc(O)cc2)C(=O)C=CC1=O (stereo not shown) equals 20

====

system: S. aureus 39105; experiment: agar diffusion test (Test System II, multi-resistant germs); type: cell-based, Staphylococcus aureus; details: Quantity n 0.019
ENDPOINT: Diameter of zone of inhibition (mm)
Your answer is read as mm, so omit the unit and give the number.

>>> value_reported("N[C@@H](C(=O)N[C@@H]1C(=O)N2C(C(=O)O)=C(Cl)CS[C@H]12)c1ccccc1 [2c, Cefaclor, reference compound]")
22

// switching to the query compound
The recorded Diameter of zone of inhibition for entry CC1=C(C(=O)O)N2C(=O)[C@@H](NC(=O)[C@H](N)c3ccc(O)cc3)[C@H]2SC1 [2a, Cefadroxil, reference compound] equals 16

====

tested on: Escherichia coli SBUG 1135; test: agar diffusion test (Test System 1, antimicrobial effect); assay type: cell-based; conditions: Quantity n 0.1
# Diameter of zone of inhibition per record follows
Your answer is read as mm, so omit the unit and give the number.

>>> value_reported("CC1=C(C(=O)O)N2C(=O)C(NC(=O)C(NC3=C(C(N)=O)C(=O)C=CC3=O)c3ccccc3)C2SC1 (centres unmarked)")
14
>>> value_reported("NC(=O)C1=C(NC(C(=O)NC2C(=O)N3C(C(=O)O)=C(Cl)CSC23)c2ccccc2)C(=O)C=CC1=O (centres unmarked)")
26
>>> value_reported("CC1=C(C(=O)O)N2C(=O)[C@@H](NC(=O)[C@H](N)c3ccc(O)cc3)[C@H]2SC1 [2a, Cefadroxil, reference compound]")
22

The recorded Diameter of zone of inhibition for entry N[C@@H](C(=O)N[C@@H]1C(=O)N2C(C(=O)O)=C(Cl)CS[C@H]12)c1ccccc1 [2c, Cefaclor, reference compound] equals 30

The recorded Diameter of zone of inhibition for entry COC(=O)C1=C(NC(C(=O)NC2C(=O)N3C(C(=O)O)=C(C)CSC23)c2ccc(O)cc2)C(=O)C=CC1=O (centres unmarked) equals 14

====

tested on: B. subtilis AWD 166; assay: agar diffusion test (antimicrobial effect); format: cell-based, Bacillus subtilis; settings: Quantity n 0.1
ENDPOINT: Diameter of zone of inhibition (mm)
Your answer is read as mm, so omit the unit and give the number.

These recorded examples may help you get a feel for the data.
>>> value_reported("COC(=O)C1=C(NC(C(=O)NC2C(=O)N3C(C(=O)O)=C(C)CSC23)c2ccc(O)cc2)C(=O)C=CC1=O (centres unmarked)")
30
>>> value_reported("N[C@@H](C(=O)N[C@@H]1C(=O)N2C(C(=O)O)=C(Cl)CS[C@H]12)c1ccccc1 [2c, Cefaclor, reference compound]")
38
>>> value_reported("NC(=O)C1=C(NC(C(=O)NC2C(=O)N3C(C(=O)O)=C(Cl)CSC23)c2ccccc2)C(=O)C=CC1=O (centres unmarked)")
38
>>> value_reported("CC1=C(C(=O)O)N2C(=O)[C@@H](NC(=O)[C@H](N)c3ccc(O)cc3)[C@H]2SC1 [2a, Cefadroxil, reference compound]")
38

The recorded Diameter of zone of inhibition for entry CC1=C(C(=O)O)N2C(=O)C(NC(=O)C(NC3=C(C(N)=O)C(=O)C=CC3=O)c3ccccc3)C2SC1 (centres unmarked) equals 30
